The reported numbers originate from paper PMC8746696.

Biological target: recombinant human TDP2 (Homo sapiens)
Sequence (O95551 whole entry): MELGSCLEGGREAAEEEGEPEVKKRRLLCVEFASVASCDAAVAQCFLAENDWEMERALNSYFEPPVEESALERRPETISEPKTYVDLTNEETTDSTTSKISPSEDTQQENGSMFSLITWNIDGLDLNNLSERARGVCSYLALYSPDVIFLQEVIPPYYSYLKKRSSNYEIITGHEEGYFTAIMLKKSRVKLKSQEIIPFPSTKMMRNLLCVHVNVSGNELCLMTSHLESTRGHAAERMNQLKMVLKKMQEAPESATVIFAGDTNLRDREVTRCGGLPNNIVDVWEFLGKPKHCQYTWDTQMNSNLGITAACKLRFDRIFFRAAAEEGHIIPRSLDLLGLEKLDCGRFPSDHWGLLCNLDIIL
Experiment: Gel-based TDP2 activity assay (removal of 5'-tyrosine from oligonucleotide, PAGE)
Type: biochemical
Conditions: inhibitor 1 mM; residual enzyme activity; read-out: TDP2 (Inhibitor Concentration 1 mM), residual activity of TDP2
# remaining activity at 1000 µM per record follows

>  <compound>
C[C@H](CCc1nc(Cc2ccc(Br)cc2)no1)[C@H]1CC[C@H]2[C@@H]3CC[C@@H]4C[C@H](OCc5ccccc5)CC[C@]4(C)[C@H]3C[C@H](OCc3ccccc3)[C@]12C [Compound 13]

>  <remaining activity at 1000 µM>
> 50%

$$$$
>  <compound>
C[C@H](CCC(=O)O/N=C(\N)c1ccc(Br)cc1)[C@H]1CC[C@H]2[C@@H]3CC[C@@H]4C[C@H](OCc5ccccc5)CC[C@]4(C)[C@H]3C[C@H](OCc3ccccc3)[C@]12C [Compound 14]

>  <remaining activity at 1000 µM>
< 50%

$$$$
>  <compound>
C[C@H](CCc1nnc(-c2ccc(Br)cc2)o1)[C@H]1CC[C@H]2[C@@H]3CC[C@@H]4C[C@H](OCc5ccccc5)CC[C@]4(C)[C@H]3C[C@H](OCc3ccccc3)[C@]12C [Compound 19]

>  <remaining activity at 1000 µM>
< 50%

$$$$
>  <compound>
C[C@H](CCc1nc(-c2ccc(Br)cc2)no1)[C@H]1CC[C@H]2[C@@H]3CC[C@@H]4C[C@H](OCc5ccccc5)CC[C@]4(C)[C@H]3C[C@H](OCc3ccccc3)[C@]12C [Compound 15]

>  <remaining activity at 1000 µM>
> 50%

$$$$
>  <compound>
C[C@H](CCC(=O)NN)[C@H]1CC[C@H]2[C@@H]3CC[C@@H]4C[C@H](OCc5ccccc5)CC[C@]4(C)[C@H]3C[C@H](OCc3ccccc3)[C@]12C [Compound 17]

>  <remaining activity at 1000 µM>
> 50%

$$$$
>  <compound>
C[C@H](CCC(=O)O/N=C(\N)Cc1ccc(Br)cc1)[C@H]1CC[C@H]2[C@@H]3CC[C@@H]4C[C@H](OCc5ccccc5)CC[C@]4(C)[C@H]3C[C@H](OCc3ccccc3)[C@]12C [Compound 12]

>  <remaining activity at 1000 µM>
< 50%

$$$$
